target: T1, murine IL-11 (mouse, UniProt P47873 22-199)
T1 sequence: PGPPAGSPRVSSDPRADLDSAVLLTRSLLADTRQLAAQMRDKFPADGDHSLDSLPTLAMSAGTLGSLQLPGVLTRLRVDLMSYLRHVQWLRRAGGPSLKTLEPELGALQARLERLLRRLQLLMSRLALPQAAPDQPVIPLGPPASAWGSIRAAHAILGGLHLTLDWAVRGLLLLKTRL
procedure.details: cell-based or functional assay

- binder: "TPP-27160 (antibody, V domains shown) VH: EVQLLESGGGLVQPGGSLRLSCAASGFTFSSYGMHWVRQAPGKGLEWVAVISYDGSYKYYADSVKGRFTISRDNSKNTLYLQMNSLRAEDTAVYYCAAGVPDYWGQGTLVTVSS VL: QSVLTQPPSASGTPGQRVTISCSGSSSNIGSGYDVHWYQQLPGTAPKLLIYDNNERPSGVPDRFSGSKSGTSASLAISGLRSEDEADYYCAAWDDSLSGPVFGGGTKLTVL"
  unit.name: "nM"
  IC50, RGA: 10

Data credit: patent US20240317847A1
